- study target: SsTsr3 (Saccharolobus solfataricus, UniProt Q9UWV6, T17A)
- Sequence (Q9UWV6 whole entry T17A): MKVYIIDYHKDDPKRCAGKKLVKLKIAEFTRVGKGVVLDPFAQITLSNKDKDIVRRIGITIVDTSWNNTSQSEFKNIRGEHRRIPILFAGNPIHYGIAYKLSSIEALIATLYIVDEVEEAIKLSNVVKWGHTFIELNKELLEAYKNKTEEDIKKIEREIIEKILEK
- measurement description: biochemical
metric: pKd
Just the number, please; pKd means minus log10 of the concentration in mol/L.

Indicate the recorded pKd value for this molecule: C[S+](CC[C@H](N)C(=O)O)C[C@H]1O[C@@H](n2cnc3c(N)ncnc32)[C@H](O)[C@@H]1O (stereo partly shown) [SAM]
2.41

----------
- study target: SsTsr3 (Saccharolobus solfataricus, UniProt Q9UWV6)
- Sequence (Q9UWV6 whole entry): as the sequence (Q9UWV6 whole entry T17A) above, with A17T counted along it
metric: pKd
Just the number, please; pKd means minus log10 of the concentration in mol/L.

Indicate the recorded pKd value for this molecule: C[S+](CC[C@H](N)C(=O)O)C[C@H]1O[C@@H](n2cnc3c(N)ncnc32)[C@H](O)[C@@H]1O (stereo partly shown)
5.19
